# method summary: Half life in rat at 2 mg/kg, iv
# Type: ADME, organism-based
# Design: dose 2 mg/kg, route intravenous
# details: in vivo
value kind: half-life
Reply with the number, then its unit.

Dear colleague, please send me the reported half-life for O=C(c1cccc2[nH]ncc12)N1CC[C@@](O)(c2ccccc2)[C@@H]2CCCC[C@@H]21 (racemic) when you can. 25.8 min

----------
Catalogue of compounds with associated IC50
# measured on: Cannabinoid receptor 2 (Homo sapiens, UniProt P34972)
# Sequence (P34972 whole entry): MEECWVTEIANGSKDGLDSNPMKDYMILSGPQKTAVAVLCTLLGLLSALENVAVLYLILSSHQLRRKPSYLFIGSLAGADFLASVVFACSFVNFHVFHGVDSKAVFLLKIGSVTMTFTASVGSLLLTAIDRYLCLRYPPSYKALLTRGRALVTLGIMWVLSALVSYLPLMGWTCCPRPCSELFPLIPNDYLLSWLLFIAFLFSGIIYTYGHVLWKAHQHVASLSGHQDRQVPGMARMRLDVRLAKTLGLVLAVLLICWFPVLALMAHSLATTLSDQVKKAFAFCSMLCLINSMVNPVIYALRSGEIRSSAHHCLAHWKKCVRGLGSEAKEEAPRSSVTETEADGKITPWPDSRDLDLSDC
# method summary: Agonist activity at human CB2 receptor expressed in CHOK1 cells assessed as inhibition of forskolin-induced cAMP production treated 15 mins before forskolin challenge measured after 1 hr by HTRF assay
Only the number, expressed in nM, is required.

Consider the following illustrative entries.
In [3]: df
Out[3]:
                                   compound  assay_result
0  CN1CCCCC1C(=O)N1CC[C@@](O)(c2ccccc2)[C@@H]2CCCC[C@@H]21 (mixture of isomers)            56
1  O=C(c1ccc(C2CC2)nc1)N1CC[C@@](O)(c2ccccc2)[C@@H]2CCCC[C@@H]21 (racemic)            12

Below: the item to evaluate.
Respond only with IC50 recorded for O=C(c1csc(-c2ccncc2)n1)N1CCC(O)(c2ccccc2)[C@@H]2CCCC[C@@H]21 (single isomer, unassigned; form 3) 388

----------
# System: Cerebrospinal fluid
# method summary: Drug level in rat complete Freund's adjuvant-induced inflammation model cerebrospinal fluid at 30 mg/kg, sc
# Assay type: ADME, organism-based
# Set-up: dose 30 mg/kg, route subcutaneous
# details: in vivo, read-out: Drug uptake
value kind: concentration (nM)
Answer format: numeric, nM implied, no suffix.

>>> print(df.to_string())
                              line_notation  assay_result
0  Cc1ccc(C(=O)N2CC[C@@](O)(c3ccccc3)[C@@H]3CCCC[C@@H]32)cn1           223

Then there is this molecule:
Complete the entry with concentration for CN1CCOC[C@H]1C(=O)N1CC[C@@](O)(c2ccccc2)[C@@H]2CCCC[C@@H]21 1500

----------
# measured on: Cannabinoid receptor 2 (Homo sapiens, UniProt P34972)
# method summary: Agonist activity at human CB2 receptor expressed in CHOK1 cells assessed as inhibition of forskolin-induced cAMP production treated 15 mins before forskolin challenge measured after 1 hr by HTRF assay
pIC50: −log10 of the molar value.
Record true (1) whenever pIC50 is at 8 or higher; record false (0) when lower.

In [3]: df
Out[3]:
                                   compound      class
0  O=C(c1ccccc1)N1CC[C@](O)(c2ccccn2)[C@H]2CCCC[C@@H]21  false (0)
1  O=C(c1cccc2[nH]ncc12)N1CC[C@@](O)(c2ccccc2)[C@@H]2CCCC[C@@H]21 (racemic)   true (1)
2  O=C(c1ccccc1)N1CC[C@](O)(c2ccccc2)[C@H]2CCCC[C@H]21   true (1)
3  O=C(c1cscn1)N1CC[C@@](O)(c2ccccc2)[C@@H]2CCCC[C@@H]21 (racemic)  false (0)
4  O=C(c1cnc2ccccc2c1)N1CC[C@@](O)(c2ccccc2)[C@@H]2CCCC[C@@H]21 (racemic)   true (1)
5  O=C(c1cccc2[nH]ccc12)N1CC[C@](O)(c2ccccc2)[C@H]2CCCC[C@@H]21  false (0)
6  O=C(c1ccc2ncccc2c1)N1CC[C@@](O)(c2ccccc2)[C@@H]2CCCC[C@@H]21 (racemic)   true (1)
7  O=C(c1cnco1)N1CC[C@@](O)(c2ccccc2)[C@@H]2CCCC[C@@H]21 (racemic)  false (0)
8  CN1CCOCC1C(=O)N1CC[C@@](O)(c2ccccc2)[C@@H]2CCCC[C@@H]21 (mixture of isomers)  false (0)
9  O=C(c1ccccc1)N1CC[C@](O)(c2cccnc2)[C@H]2CCCC[C@@H]21  false (0)

Can O=C(c1ccc(Cl)cc1)N1CC[C@](O)(c2ccccc2)[C@H]2CCCC[C@@H]21 be said to have pIC50 at or above 8? false (0)

----------
# measured on: Cannabinoid receptor 2 (Homo sapiens, UniProt P34972)
# method summary: Agonist activity at human CB2 receptor expressed in CHOK1 cells assessed as inhibition of forskolin-induced cAMP production treated 15 mins before forskolin challenge measured after 1 hr by HTRF assay relative to control
# Format: functional, cell-based
# details: CHO-K1
value kind: Emax (%)
Write down the numeric answer in % and omit the unit.

Completed entries (count: 6):
In [3]: df
Out[3]:
                                   compound  value_kind  assay_result
0  O=C(c1ccc2[nH]ccc2c1)N1CC[C@@](O)(c2ccccc2)[C@@H]2CCCC[C@@H]21 (racemic)        Emax           104
1  O=C(c1csc(-c2ccncc2)n1)N1CCC(O)(c2ccccc2)[C@@H]2CCCC[C@@H]21 (single isomer, unassigned; form 1)        Emax           100
2  O=C(c1ccc2ccccc2n1)N1CC[C@](O)(c2ccccc2)[C@H]2CCCC[C@@H]21        Emax            98
3  O=C(C1CN(CC(F)(F)F)CCO1)N1CC[C@@](O)(c2ccccc2)[C@@H]2CCCC[C@@H]21 (mixture of isomers)        Emax            99
4  Cc1ccc(C(=O)N2CC[C@@](O)(c3ccccc3)[C@@H]3CCCC[C@@H]32)cn1 (racemic)        Emax            99
5  O=C(c1cccc2[nH]ccc12)N1CC[C@](O)(c2ccccc2)[C@H]2CCCC[C@H]21        Emax           100

// Input: O=C(C1CNCCN1)N1CC[C@@](O)(c2ccccc2)[C@@H]2CCCC[C@@H]21 (mixture of isomers) . Output its Emax only. 91

Give the reported Emax for this compound. CN1CCOC[C@H]1C(=O)N1CC[C@@](O)(c2ccccc2)[C@@H]2CCCC[C@@H]21 101

Answer with the recorded Emax for the compound listed here: O=C(c1ccc2ncccc2c1)N1CC[C@@](O)(c2ccccc2)[C@@H]2CCCC[C@@H]21 (racemic) 87

Give a short answer stating reported Emax for O=C(c1ccccc1)N1CC[C@](O)(c2ccc(Cl)cc2)[C@H]2CCCC[C@@H]21 . 88

Read the entry O=C(c1ccc(C2CC2)nc1)N1CC[C@@](O)(c2ccccc2)[C@@H]2CCCC[C@@H]21 (racemic) and write its reported Emax. 96

Fill in Emax for record O=C(c1cccc2[nH]ccc12)N1CC[C@](O)(c2ccccc2)[C@H]2CCCC[C@@H]21 94

Give Emax for the following compound: N#Cc1cccc([C@@]2(O)CCN(C(=O)c3ccccc3)[C@H]3CCCC[C@@H]32)c1 85

Please report Emax for the following compound: O=C(c1ccccc1)N1CC[C@](O)(c2ccccc2)[C@H]2CCCC[C@@H]21 99

Fill in reported Emax for this entry: Cc1cccc(C(=O)N2CC[C@@](O)(c3ccccc3)[C@@H]3CCCC[C@@H]32)n1 (racemic) 99

Read the entry O=C(c1cscn1)N1CC[C@@](O)(c2ccccc2)[C@@H]2CCCC[C@@H]21 (racemic) and write its reported Emax. 101

----------
# measured on: Cannabinoid receptor 1 (Homo sapiens, UniProt P21554)
# Sequence (P21554 whole entry): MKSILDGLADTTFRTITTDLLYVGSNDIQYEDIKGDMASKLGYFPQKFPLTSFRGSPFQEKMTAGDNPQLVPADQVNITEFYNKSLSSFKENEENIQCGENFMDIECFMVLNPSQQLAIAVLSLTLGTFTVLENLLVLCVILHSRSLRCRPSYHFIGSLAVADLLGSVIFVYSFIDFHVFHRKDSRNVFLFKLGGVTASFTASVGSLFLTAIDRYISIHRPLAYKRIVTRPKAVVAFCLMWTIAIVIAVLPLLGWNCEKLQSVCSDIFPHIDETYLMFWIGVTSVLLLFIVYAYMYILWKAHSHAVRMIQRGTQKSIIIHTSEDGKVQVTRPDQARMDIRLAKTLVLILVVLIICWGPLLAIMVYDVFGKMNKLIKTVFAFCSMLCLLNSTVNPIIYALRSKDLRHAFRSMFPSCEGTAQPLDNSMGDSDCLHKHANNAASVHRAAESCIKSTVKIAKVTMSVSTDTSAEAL
# method summary: Agonist activity at human CB1 receptor expressed in CHOK1 cells assessed as inhibition of forskolin-induced cAMP production treated 15 mins before forskolin challenge measured after 1 hr by HTRF assay relative to control
# Format: functional, cell-based
# details: CHO-K1
Please note: Emax exactly at 50% is n. Only values below 50% get y.

For orientation, consider the following solved cases.
>>> print(df.to_string())
                                   compound  class
0  O=C(c1ccc(Cl)cc1)N1CC[C@](O)(c2ccccc2)[C@H]2CCCC[C@H]21      n
1  O=C(c1ccc2cnccc2n1)N1CC[C@@](O)(c2ccccc2)[C@@H]2CCCC[C@@H]21 (racemic)      n
2  O=C(c1ccccc1)N1CC[C@](O)(c2ccccc2)[C@H]2CCCC[C@H]21      n
3  O=C(c1cccc2[nH]ccc12)N1CC[C@](O)(c2ccccc2)[C@H]2CCCC[C@@H]21      y
4  Cc1ccc(C(=O)N2CC[C@@](O)(c3ccccc3)[C@@H]3CCCC[C@@H]32)cn1      n
5  O=C(c1cc(-c2ccccc2F)[nH]n1)N1CC[C@](O)(c2ccccc2)[C@H]2CCCC[C@H]21      y
6  O=C(c1cc(-c2ccccc2F)[nH]n1)N1CC[C@](O)(c2ccccc2)[C@H]2CCCC[C@@H]21      n
7  O=C(c1cccc2[nH]ncc12)N1CCC(O)(c2ccccc2)[C@@H]2CCCC[C@@H]21 (single isomer, unassigned)      y
8  O=C(c1cccc2[nH]cnc12)N1CC[C@@](O)(c2ccccc2)[C@@H]2CCCC[C@@H]21 (racemic)      n
9  O=C(C1CN(CC(F)(F)F)CCO1)N1CC[C@@](O)(c2ccccc2)[C@@H]2CCCC[C@@H]21 (mixture of isomers)      n

Hi there! Is Emax for O=C(c1ccc2ccccc2n1)N1CC[C@](O)(c2ccccc2)[C@H]2CCCC[C@@H]21 below 50%, do you know? n

Hello, is Emax of the following compound strictly smaller than 50%? O=C(c1ccc(Cl)cc1)N1CC[C@](O)(c2ccccc2)[C@H]2CCCC[C@@H]21 n

Quick check: Emax of CN1CCOC[C@H]1C(=O)N1CC[C@@](O)(c2ccccc2)[C@@H]2CCCC[C@@H]21 under 50%? y

Consider O=C(c1ccccc1)N1CC[C@](O)(c2ccccc2)[C@H]2CCCC[C@@H]21 . Does its Emax lie strictly below 50%? y

Report whether reported Emax is lower than 50% (strictly) for CN1CCC(C(=O)N2CC[C@](O)(c3ccccc3)[C@H]3CCCC[C@@H]32)C1 (some centres not stated) y

From: ChEMBL document CHEMBL1765069
